Some molecules, each annotated with its measured Ki.
target: Pin1 (GST-Pin1) (Homo sapiens); assay: Fluorescence polarization (FP) assay, binding to Pin1; conditions: Ki, μM (FP Assay), competition with fluorescein-labeled peptide probe; 12 hours pre-incubation at 4° C.; Kenakin Ki equation
Sequence (Q13526 whole entry): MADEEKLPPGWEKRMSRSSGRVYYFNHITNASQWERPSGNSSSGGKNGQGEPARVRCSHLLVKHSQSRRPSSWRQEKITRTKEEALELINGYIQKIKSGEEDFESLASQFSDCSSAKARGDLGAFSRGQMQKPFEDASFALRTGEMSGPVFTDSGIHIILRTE
Non-standard residues stand in square brackets, D forms with d. Residues, ends and D or L forms follow the SMILES beside them. *: point of attachment. Phe(3,5-F2) = N[C@@H](Cc1cc(F)cc(F)c1)C(=O)O; Phe(2-Br) = N[C@@H](Cc1ccccc1Br)C(=O)O; 2Nal = N[C@@H](Cc1ccc2ccccc2c1)C(=O)O; NH(4-Me-benzyl) = Cc1ccc(CN*)cc1; Cha = N[C@@H](CC1CCCCC1)C(=O)O; Cit = NC(=O)NCCC[C@H](N)C(=O)O; Pip = O=C(O)[C@@H]1CCCCN1; ClAc = O=C(CCl)*

Below, each entry is followed by its recorded Ki result.
INSERT INTO measurements (molecule, testvalue) VALUES
  ('NC(=O)NCCC[C@H](NC(=O)[C@H](Cc1ccc2ccccc2c1)NC(=O)[C@H](CC1CCCCC1)NC(=O)[C@H](CCC(=O)O)NC(=O)CCl)C(N)=O [Compound 2-15] (ClAc-E[Cha][2Nal][Cit]-NH2)', '> 10 µM'),
  ('COC(=O)CC[C@H](NC(=O)CCl)C(=O)N1CCCC[C@H]1C(=O)N[C@@H](Cc1c[nH]c2ccccc12)C(=O)N[C@@H](Cc1ccccc1Br)C(=O)NCc1ccc(C)cc1 [Compound 11-27] (ClAc-E(OMe)[Pip]W[Phe(2-Br)]-{NH(4-Me-benzyl)})', '> 10 µM');

Attention now shifts to the item below.
Exercise: For the molecule shown here, COC(=O)CC[C@H](NC(=O)CCl)C(=O)N1CCCC[C@H]1C(=O)N[C@@H](Cc1c[nH]c2ccccc12)C(=O)N[C@@H](Cc1cc(F)cc(F)c1)C(=O)NCc1ccc(C)cc1 [Compound 11-24] (ClAc-E(OMe)[Pip]W[Phe(3,5-F2)]-{NH(4-Me-benzyl)}) , give the reported Ki.
Key: > 10 µM

Hello, the source for this data is patent US20210238225A1, in case you need it.
